Quick list: pKi per entry.
- subject.of.test: UniProt:P35462
- Sequence (P35462 whole entry): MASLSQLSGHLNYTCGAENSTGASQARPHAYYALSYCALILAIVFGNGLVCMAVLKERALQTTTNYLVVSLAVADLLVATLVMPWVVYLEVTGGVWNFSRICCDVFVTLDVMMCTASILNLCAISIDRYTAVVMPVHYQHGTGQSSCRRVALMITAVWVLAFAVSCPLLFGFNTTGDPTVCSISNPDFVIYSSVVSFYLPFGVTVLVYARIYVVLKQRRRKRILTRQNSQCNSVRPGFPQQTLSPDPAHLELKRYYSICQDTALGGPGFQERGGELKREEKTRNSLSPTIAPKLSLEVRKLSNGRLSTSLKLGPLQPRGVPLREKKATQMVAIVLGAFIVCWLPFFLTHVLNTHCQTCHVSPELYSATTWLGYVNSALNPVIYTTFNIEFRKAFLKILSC
- measurement.notes: Binding of [3H]spiperone to membranes of CHO cells transfected with the human dopamine D3 receptor
- measurement.parameters: binding of [3H]spiperone (0.5 to 2 nM), hD3-transfected CHO cell membranes, 60 minutes at ambient temperature; read-out: hD3 Ki
Counter-ions that a name gives are not always drawn.
Scale note: pKi = -log10(concentration in M).

Recorded results for 5 compounds are shown here.
O=C(CCCCCN1CCN(c2cccc(C(F)(F)F)c2)CC1)N1Cc2ccc(F)cc2C1 | 8.98
N#Cc1ccc2c(c1)CN(C(=O)CCCCCN1CCN(c3cccc(C(F)(F)F)c3)CC1)C2 [Example 3, hydrochloride] | 8.59
O=C(CCCCCN1CC=C(c2cccc(C(F)(F)F)c2)CC1)N1Cc2ccccc2C1 | 9.03
COc1ccc2c(c1)CN(C(=O)CCCCCN1CCN(c3cccc(C(F)(F)F)c3)CC1)C2 | 9.05
O=C(CCCCCN1CCN(c2cccc3c2CCCC3)CC1)N1Cc2ccccc2C1 | 9.08

In: Assign pKi to the following record: O=C(CCCCCN1CCN(c2cccc(C(F)(F)F)c2)CC1)N1Cc2ccc(OCCCN3CCCCC3)cc2C1
Out: 8.92

In: Assign pKi to the following record: COC(=O)c1ccc2c(c1)CN(C(=O)CCCCCN1CCN(c3cccc(C(F)(F)F)c3)CC1)C2 [Example 12, hydrochloride]
Out: 9.07

In: Assign pKi to the following record: O=C(CCCCCN1CCN(c2cccc(C(F)(F)F)c2)CC1)N1Cc2cc3c(cc2C1)OCO3
Out: 8.93

In: Assign pKi to the following record: O=C(CCCCCN1CCC(c2cccc(C(F)(F)F)c2)CC1)N1Cc2ccccc2C1
Out: 7.71
